assay target: AR (Homo sapiens, UniProt P10275)
Construct: endogenous in cells; host or cells: VCaP cells
Sequence (P10275 whole entry): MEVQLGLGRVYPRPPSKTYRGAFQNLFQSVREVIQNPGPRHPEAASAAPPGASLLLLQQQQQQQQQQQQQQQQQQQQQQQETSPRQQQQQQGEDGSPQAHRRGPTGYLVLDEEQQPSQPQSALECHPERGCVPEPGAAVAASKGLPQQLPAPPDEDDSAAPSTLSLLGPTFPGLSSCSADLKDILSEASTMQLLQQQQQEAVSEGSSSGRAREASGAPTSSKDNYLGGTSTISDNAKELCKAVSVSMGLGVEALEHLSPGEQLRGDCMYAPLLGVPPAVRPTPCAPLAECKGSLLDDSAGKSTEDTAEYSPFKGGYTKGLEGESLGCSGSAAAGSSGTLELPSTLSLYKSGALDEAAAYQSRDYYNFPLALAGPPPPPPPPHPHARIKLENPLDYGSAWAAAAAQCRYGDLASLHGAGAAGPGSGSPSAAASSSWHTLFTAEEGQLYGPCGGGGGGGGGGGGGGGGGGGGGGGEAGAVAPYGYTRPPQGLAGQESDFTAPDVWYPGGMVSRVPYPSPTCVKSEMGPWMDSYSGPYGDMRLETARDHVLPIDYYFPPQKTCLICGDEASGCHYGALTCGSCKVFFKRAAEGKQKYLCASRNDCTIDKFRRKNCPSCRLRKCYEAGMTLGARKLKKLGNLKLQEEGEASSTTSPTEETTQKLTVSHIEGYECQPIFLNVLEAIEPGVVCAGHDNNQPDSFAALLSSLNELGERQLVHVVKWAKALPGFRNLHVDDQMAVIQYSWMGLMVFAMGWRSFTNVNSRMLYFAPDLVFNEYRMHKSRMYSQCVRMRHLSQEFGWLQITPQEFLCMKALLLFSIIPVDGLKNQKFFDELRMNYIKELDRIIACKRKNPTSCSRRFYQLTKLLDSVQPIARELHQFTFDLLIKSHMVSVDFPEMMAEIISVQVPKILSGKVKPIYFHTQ
protocol text: VCAP AR Degradation Assay
Type: cell-based
experimental context: class symbols A-C, read-out: DC50
measurement name: DC50

Observe how each entry below is paired with its result.
molecule	DC50
CC(C)c1cc(N2C(=S)N(c3cnc(C#N)c(C(F)(F)F)c3)C(=O)C2(C)C)ccc1OCCN1CCN(CC(=O)Nc2cccc(NC3CCC(=O)NC3=O)c2)[C@H](C)C1 (stereo partly drawn)	100 to 500 nM
CCc1cc(N2C(=S)N(c3cnc(C#N)c(C(F)(F)F)c3)C(=O)C2(C)C)ccc1OCCN1C[C@H]2CC[C@@H]1CN2CC(=O)Nc1cccc(NC2CCC(=O)NC2=O)c1 (stereo partly drawn)	100 to 500 nM
C[C@@H]1CN(CC(=O)Nc2cccc(NC3CCC(=O)NC3=O)c2)[C@H](C)CN1CCOc1ccc(N2C(=S)N(c3ccc(C#N)c(Cl)c3)C(=O)C2(C)C)cc1C1CC1 (stereo partly drawn)	< 100 nM

input: What value of DC50 has been reported for the following molecule? CCc1cc(N2C(=S)N(c3cnc(C#N)c(C(F)(F)F)c3)C(=O)C2(C)C)ccc1OCCN1CCN([C@H](C)C(=O)Nc2cc(Cl)cc(NC3CCC(=O)NC3=O)c2)CC1 (stereo partly drawn) [Example 191]
output: < 100 nM

input: What value of DC50 has been reported for the following molecule? CCc1cc(N2C(=S)N(c3ccc(C#N)c(C(F)(F)F)c3)C(=O)C2(C)C)ccc1OCCN1C[C@H](C)N(CC(=O)Nc2cc(Cl)cc(NC3CCC(=O)NC3=O)c2)C[C@@H]1C (stereo partly drawn)
output: < 100 nM

input: What value of DC50 has been reported for the following molecule? CCc1cc(N2C(=S)N(c3ccc(C#N)c(C(F)(F)F)c3)C(=O)C2(C)C)ccc1OCCN1CCN(C(C)(C)C(=O)Nc2cc(Cl)cc(NC3CCC(=O)NC3=O)c2)CC1 (stereo not drawn)
output: 100 to 500 nM

input: What value of DC50 has been reported for the following molecule? CCc1cc(N2C(=S)N(c3ccc(C#N)c(C(F)(F)F)c3)C(=O)C2(C)C)ccc1OCCN1C[C@H](C)N(CC(=O)Nc2cccc(NC3CCC(=O)NC3=O)c2)[C@@H](C)C1 (stereo partly drawn)
output: < 100 nM

input: What value of DC50 has been reported for the following molecule? CCc1cc(N2C(=S)N(c3cnc(C#N)c(C(F)(F)F)c3)C(=O)C2(C)C)ccc1OCCN1C[C@@H](C)N(CC(=O)Nc2cccc(NC3CCC(=O)NC3=O)c2)[C@@H](C)C1 (stereo partly drawn)
output: < 100 nM

input: What value of DC50 has been reported for the following molecule? CCc1cc(N2C(=S)N(c3ccc(C#N)c(C(F)(F)F)c3)C(=O)C2(C)C)ccc1OCCN1CCN(CC(=O)Nc2cc(NC3CCC(=O)NC3=O)cc(F)c2F)CC1 (stereo not drawn)
output: < 100 nM

---

Below, each entry is listed alongside its reported DC50.
assay target: AR (Homo sapiens)
Construct: endogenous in cells; host or cells: VCaP cells
protocol text: VCAP AR Degradation Assay
Format: cell-based
experimental context: class symbols A-C, read-out: DC50
Structures can show the parent of a compound that is named as a salt.

Observe how each entry below is paired with its result.
compound	assay target	DC50
CCc1cc(N2C(=S)N(c3cnc(C#N)c(C(F)(F)F)c3)C(=O)C2(C)C)ccc1O[C@@H](C)CN1C[C@@H](C)N(CC(=O)Nc2cccc(NC3CCC(=O)NC3=O)c2)[C@@H](C)C1 (single isomer, unassigned) [Example 240]	AR (Homo sapiens)	100 to 500 nM
CC1(C)C(=O)N(c2cnc(C#N)c(C(F)(F)F)c2)C(=S)N1c1ccc(OCCN2CCN(CC(=O)Nc3cccc(NC4CCC(=O)NC4=O)c3)CC2)c(Cl)c1 (centres unmarked) [Example 5, hydrochloride]	AR (Homo sapiens)	< 100 nM
C[C@@H]1CN(CC(=O)Nc2cccc(NC3CCC(=O)NC3=O)c2)[C@H](C)CN1CCOc1ccc(N2C(=S)N(c3ccc(C#N)c(C(F)(F)F)c3)C(=O)C2(C)C)cc1C1CC1 (some centres unmarked) [Example 203]	AR (Homo sapiens)	< 100 nM
CCc1cc(N2C(=S)N(c3cnc(C#N)c(C(F)(F)F)c3)C(=O)C2(C)C)ccc1O[C@H](C)CN1C[C@@H](C)N(CC(=O)Nc2cccc(NC3CCC(=O)NC3=O)c2)[C@@H](C)C1 (single isomer, unassigned) [Example 239]	AR (Homo sapiens)	< 100 nM

Query compound follows.
input: What value of DC50 has been reported for the following compound? CCc1cc(N2C(=S)N(c3ccc(C#N)c(C(F)(F)F)c3)C(=O)C2(C)C)ccc1OCCN1CCN([C@H](C)C(=O)Nc2cccc(NC3CCC(=O)NC3=O)c2)[C@@H](C)C1 (some centres unmarked) [Example 274]
output: < 100 nM

---

assay target: AR (Homo sapiens)
Construct: endogenous in cells; host or cells: VCaP cells
protocol text: VCAP AR Degradation Assay
Assay type: cell-based
experimental context: class symbols A-C, read-out: DC50
Where a name gives a salt, the structure may show the parent alone.
measurement name: DC50

molecule	assay target	result
C[C@@H]1CN(CCOc2ccc(N3C(=S)N(c4ccc(C#N)c(Cl)c4)C(=O)C3(C)C)cc2C2CC2)C[C@H](C)N1CC(=O)Nc1cccc(NC2CCC(=O)NC2=O)c1 (stereo partly shown)	AR (Homo sapiens)	< 100 nM
CCc1cc(N2C(=S)N(c3ccc(C#N)c(C(F)(F)F)c3)C(=O)C2(C)C)ccc1O[C@@H](C)CN1C[C@@H](C)N(CC(=O)Nc2cccc(NC3CCC(=O)NC3=O)c2)[C@@H](C)C1 (single isomer, unassigned)	AR (Homo sapiens)	500 to 1000 nM
CC1(C)C(=O)N(c2ccc(C#N)c(C(F)(F)F)c2)C(=S)N1c1ccc(OCCN2CCN(CC(=O)Nc3cccc(NC4CCC(=O)NC4=O)c3)CC2)c(Cl)c1 (stereo not shown) [Example 3, hydrochloride]	AR (Homo sapiens)	< 100 nM
CCc1cc(N2C(=S)N(c3ccc(C#N)c(C(F)(F)F)c3)C(=O)C2(C)C)ccc1OCCN1CCN(CC(=O)Nc2cccc(NC3CCC(=O)NC3=O)c2)C[C@H]1C (stereo partly shown)	AR (Homo sapiens)	< 100 nM
CCc1cc(N2C(=S)N(c3ccc(C#N)c(C(F)(F)F)c3)C(=O)C23CCCCC3)ccc1OCCN1C[C@@H](C)N(CC(=O)Nc2cccc(NC3CCC(=O)NC3=O)c2)[C@@H](C)C1 (stereo partly shown)	AR (Homo sapiens)	< 100 nM
C[C@@H]1CN(CCCc2ccc(N3C(=S)N(c4ccc(C#N)c(C(F)(F)F)c4)C(=O)C3(C)C)cc2F)C[C@H](C)N1CC(=O)Nc1cccc(NC2CCC(=O)NC2=O)c1 (stereo partly shown)	AR (Homo sapiens)	< 100 nM
CC1(C)C(=O)N(c2ccc(C#N)c(C(F)(F)F)c2)C(=S)N1c1ccc(OCCN2CCN(CC(=O)Nc3cccc(NC4CCC(=O)NC4=O)c3)[C@H](C(F)(F)F)C2)c(C2CC2)c1 (stereo partly shown)	AR (Homo sapiens)	< 100 nM
CCc1cc(N2C(=S)N(c3ccc(C#N)c(C(F)(F)F)c3)C(=O)C23CCCC3)ccc1OCCN1C[C@@H](C)N(CC(=O)Nc2cccc(NC3CCC(=O)NC3=O)c2)[C@@H](C)C1 (stereo partly shown)	AR (Homo sapiens)	< 100 nM
CC(C)c1cc(N2C(=S)N(c3ccc(C#N)c(C(F)(F)F)c3)C(=O)C2(C)C)ccc1OCCN1C[C@@H](C)N(CC(=O)Nc2cc(Cl)cc(NC3CCC(=O)NC3=O)c2)C[C@H]1C (stereo partly shown)	AR (Homo sapiens)	100 to 500 nM

input: What value of DC50 has been reported for the following molecule? CCc1cc(N2C(=S)N(c3ccc(C#N)c(C(F)(F)F)c3)C(=O)C2(C)C)ccc1OCCN1C[C@@H](C)N(CC(=O)Nc2cccc(NC3CCC(=O)NC3=O)c2)C[C@H]1C (stereo partly shown)
output: < 100 nM

---

Below, each entry is listed alongside its reported DC50.
assay target: AR (Homo sapiens, UniProt P10275)
Construct: endogenous in cells; host or cells: VCaP cells
protocol text: VCAP AR Degradation Assay
Type: cell-based
experimental context: class symbols A-C, read-out: DC50

Observe how each entry below is paired with its result.
compound	assay target	DC50
CC[C@H]1CN(CCOc2ccc(N3C(=S)N(c4ccc(C#N)c(C(F)(F)F)c4)C(=O)C3(C)C)cc2C2CC2)CCN1CC(=O)Nc1cccc(NC2CCC(=O)NC2=O)c1 (stereo partly shown) [Example 263]	AR (Homo sapiens, UniProt P10275)	< 100 nM
CCc1cc(N2C(=S)N(c3ccc(C#N)c(C(F)(F)F)c3)C(=O)C2(C)C)ccc1OCCN1CCN(CC(=O)Nc2cccc(N[C@@H]3CCC(=O)NC3=O)c2)[C@H](C)C1 [Example 112]	AR (Homo sapiens, UniProt P10275)	< 100 nM
CCc1cc(N2C(=S)N(c3cnc(C#N)c(C(F)(F)F)c3)C(=O)C2(C)C)ccc1OCCN1CCN([C@H](C)C(=O)Nc2cc(Cl)cc(NC3CCC(=O)NC3=O)c2)CC1 (single isomer, unassigned) [Example 113]	AR (Homo sapiens, UniProt P10275)	< 100 nM

input: What value of DC50 has been reported for the following compound? CCc1cc(N2C(=S)N(c3ccc(C#N)c(C(F)(F)F)c3)C(=O)C2(C)C)cnc1OCCN1CCN(CC(=O)Nc2cc(Cl)cc(NC3CCC(=O)NC3=O)c2)CC1 (stereo not shown) [Example 69]
output: < 100 nM

input: What value of DC50 has been reported for the following compound? CCc1cc(N2C(=S)N(c3ccc(C#N)c(C(F)(F)F)c3)C(=O)C2(C)C)c(F)cc1OCCN1C[C@@H](C)N(CC(=O)Nc2cccc(NC3CCC(=O)NC3=O)c2)[C@@H](C)C1 (stereo partly shown) [Example 247]
output: < 100 nM

input: What value of DC50 has been reported for the following compound? CCc1cc(N2C(=S)N(c3ccc(C#N)c(C(F)(F)F)c3)C(=O)C23CCC3)ccc1OCCN1CCN(CC(=O)Nc2cccc(NC3CCC(=O)NC3=O)c2)CC1 (stereo not shown) [Example 132]
output: < 100 nM

input: What value of DC50 has been reported for the following compound? CC1(C)C(=O)N(c2cnc(C#N)c(C(F)(F)F)c2)C(=S)N1c1ccc(OCCN2CCN(CC(=O)Nc3cccc(NC4CCC(=O)NC4=O)c3)CC2)c(CCF)c1 (stereo not shown) [Example 161]
output: < 100 nM

input: What value of DC50 has been reported for the following compound? C[C@@H]1CN(CCOc2ccc(N3C(=S)N(c4cnc(C#N)c(C(F)(F)F)c4)C(=O)C3(C)C)cc2CCF)CCN1CC(=O)Nc1cccc(NC2CCC(=O)NC2=O)c1 (stereo partly shown) [Example 166]
output: < 100 nM

input: What value of DC50 has been reported for the following compound? CC(C)c1cc(N2C(=S)N(c3ccc(C#N)c(C(F)(F)F)c3)C(=O)C2(C)C)cnc1OCCN1C[C@@H](C)N(CC(=O)Nc2cc(Cl)cc(NC3CCC(=O)NC3=O)c2)C[C@H]1C (stereo partly shown) [Example 214]
output: 100 to 500 nM

input: What value of DC50 has been reported for the following compound? CC(C)c1cc(N2C(=S)N(c3ccc(C#N)c(C(F)(F)F)c3)C(=O)C2(C)C)cnc1OCCN1C[C@@H](C)N(CC(=O)Nc2cccc(NC3CCC(=O)NC3=O)c2)[C@@H](C)C1 (stereo partly shown) [Example 224]
output: 100 to 500 nM
